tested on: CP315; experiment: qHTS profiling for inhibitors of Plasmodium falciparum proliferation (AID 504749);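 also: 0% = DMSO vehicle and full inhibition = artemisinin control; nearly all actives have a fitted effect of over 60% in size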; details: P. falciparum in erythrocytes, SYBR Green DNA, 72 h; series mostly up to 28.7 µM
Records with an inconclusive call do not appear. Active and inactive are the calls of the source. Calls follow the shape of the dose curve; as a rule, active = well fitted inhibition curve with a large enough effect; inconclusive = small, poorly fitted or top-dose-only effect; inactive = flat fitted curve, though single readings scatter.
Readout: outcome

// below: answered compounds
COc1cc2c(cc1OC)CC(=O)N(CCCN(C)C[C@H]1Cc3cc(OC)c(OC)cc31)CC2 : inactive
O=C1C(CCC(O)c2ccc(F)cc2)C(c2ccc(O)cc2)N1c1ccc(F)cc1 (stereo not drawn) : inactive
CS(=O)(=O)c1ccc(C2=C(c3ccccc3)C(=O)OC2)cc1 : inactive
N#Cc1c(N(CC(=O)O)CC(=O)O)sc(C(=O)O)c1CC(=O)O : inactive
C=C1c2cccc(O)c2C(O)=C2C(=O)[C@@]3(O)C(O)=C(C(N)=O)C(=O)[C@@H](N(C)C)[C@@H]3[C@@H](O)[C@H]12 : inactive

Request: Requested field: outcome. Item: CN1CC(=O)N2C(Cc3c([nH]c4ccccc34)[C@H]2c2ccc3c(c2)OCO3)C1=O (stereo partly drawn)
Result: inactive

Request: Reported outcome for Cc1cc2nc3c(=O)[nH]c(=O)nc-3n(CC(O)C(O)C(O)CO)c2cc1C (stereo not drawn) : what is it?
Result: inactive

Request: I'd like to know its outcome. The compound in question is `CC(C)CN(C[C@@H](O)[C@H](Cc1ccccc1)NC(=O)O[C@H]1CO[C@H]2OCC[C@H]21)S(=O)(=O)c1ccc(N)cc1`
Result: inactive

* * *

assay: Quantitative High-Throughput drug screen in 47 multiple myeloma cell lines against the NCATS MIPE library collection: KMS27_JCRB cell viability assay (AID 1918970); details: KMS27 myeloma cells, CellTiter-Glo ATP viability, 48 h; also: nearly all actives have a fitted effect of over 30% in size
Inconclusive results are not listed. Active and inactive are the calls of the source. The call rests on the fitted dose curve; in most records, active means well fitted cell-killing curve with a large enough effect; inconclusive means small, poorly fitted or top-dose-only effect, or effect the other way; inactive means no such curve, though single readings can be large or run the other way.
Output constraint: value belongs to class 1 (active), class 0 (inactive)

Solved entries (count: 2):
NC[C@H]1O[C@H](O[C@@H]2[C@@H](O)[C@@H](O[C@H]3O[C@H](CO)[C@@H](O)[C@H](N)[C@@H]3O)[C@H](N)C[C@@H]2N)[C@H](O)[C@@H](O)[C@H]1O : class 0
C[C@]12CCC3=C4CCC(=O)C=C4CC[C@@H]3[C@H]1CC[C@@]2(O)CC#N : class 0

Request: Field: outcome | Entry: `CNC(=O)c1ccc2c(C(=Nc3cccc(CN(C)C)c3)c3ccccc3)c(O)[nH]c2c1`
Result: class 1

Request: Per the assay record, what outcome was assigned to `COc1cc2ncn(-c3cc(OCc4ccccc4S(C)(=O)=O)c(C#N)s3)c2cc1OC` ?
Result: class 0

Request: Hi team, can someone confirm the assay call for `CC(C)C[C@@H](C(=O)N[C@H](C(=O)OC1CCCC1)c1ccccc1)[C@H](O)C(=O)NO` ?
Result: class 1

Request: # outcome recorded in this test, key = `CC1(C)[C@H]2CC[C@]3(C)[C@@H](C(=O)C=C4[C@@H]5C[C@@](C)(C(=O)O)CC[C@]5(C)CC[C@]43C)[C@@]2(C)CC[C@@H]1O`
Result: class 0

Request: What outcome does the record of this test show for `CCC[C@@H](NC(=O)[C@@H]1[C@H]2CCC[C@@H]2CN1C(=O)[C@@H](NC(=O)[C@@H](NC(=O)c1cnccn1)C1CCCCC1)C(C)(C)C)C(=O)C(=O)NC1CC1` ?
Result: class 0

Request: For `Cc1ccc(NC(=O)c2cccc(N(C)C)c2)cc1NC(=O)c1ccc(O)cc1` , which call appears in the assay record?
Result: class 1

Request: GET /call?item= `CN1CCN(c2cccc(Nc3nc4c(-c5ccc(S(C)(=O)=O)cc5)cccn4n3)c2)CC1` returns the recorded outcome of this test.
Result: class 1

Request: Test call for this compound, please: `CC=C(C(=CC)c1ccc(O)cc1)c1ccc(O)cc1`
Result: class 1

Request: Each compound tested received a call. Report the one for `CC(=O)N1CCN(c2ccc(OCc3nn(C)c(C)c3-c3cccc4c(CCCOc5cc(C)c(Cl)c(C)c5)c(C(=O)O)n(Cc5cccnc5)c34)cc2)CC1` .
Result: class 1

Request: Outcome logged for `CC(C)CN(C[C@H](O)[C@H](Cc1ccccc1)NC(=O)O[C@H]1CCOC1)S(=O)(=O)c1ccc(N)cc1` in this assay:
Result: class 0

Request: How was `O=C(NC[C@H](O)CO)c1ccncc1Nc1ccc(I)cc1F` classified in this test?
Result: class 1

Request: Name the outcome recorded for `C[C@@]1(C(=O)Nc2ccc(F)nc2)CCCN1c1nc(Nc2cc(C3CC3)[nH]n2)c2cccn2n1` in the assay.
Result: class 1

Request: What call does the record list for `O=C1NC(=O)C(=Cc2ccc(-c3ccc(F)cc3O)o2)S1` ?
Result: class 1

Request: Answer briefly: the call reported for `C=CC[N+]1([C@H]2C[C@H]3[C@@H]4CC[C@H]5C[C@H](O)[C@@H](N6CCOCC6)C[C@]5(C)[C@@H]4CC[C@]3(C)[C@H]2OC(C)=O)CCCC1` in this assay.
Result: class 0
